meta.source: patent US7759397B2

Biological target: human dopamine D3 receptors (Homo sapiens)
Construct: expressed in transfected cells
Sequence (P35462 whole entry): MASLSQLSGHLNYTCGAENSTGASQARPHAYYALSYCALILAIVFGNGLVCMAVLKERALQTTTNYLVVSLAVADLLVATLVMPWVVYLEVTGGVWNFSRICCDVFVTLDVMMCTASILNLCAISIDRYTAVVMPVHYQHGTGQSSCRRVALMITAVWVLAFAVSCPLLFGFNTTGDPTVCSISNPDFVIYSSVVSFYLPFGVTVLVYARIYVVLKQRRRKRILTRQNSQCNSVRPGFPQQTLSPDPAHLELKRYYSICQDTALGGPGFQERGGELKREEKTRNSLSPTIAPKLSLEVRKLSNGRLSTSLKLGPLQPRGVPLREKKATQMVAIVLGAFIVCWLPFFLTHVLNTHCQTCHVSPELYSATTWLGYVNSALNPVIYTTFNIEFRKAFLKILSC
Assay: Dopamine D3 receptor binding, displacement of [125I]-iodosulpride
Settings: ratio of receptor binding constants D2 over D3
ASSAY_ENDPOINT: Ki(D2)*/Ki(D3)* selectivity ratio

• CCCN1CCC[C@H]2c3cc(NS(=O)(=O)c4ccc(C(C)C)cc4)ccc3C[C@@H]21 [4 (SS)-isomer] = 17

[A] CCCN1CCC[C@@H]2c3cc(NS(=O)(=O)c4ccc(C(C)C)cc4)ccc3C[C@H]21 [4 (RR)-isomer]
[B] CCCN[C@H]1Cc2ccc(N(C)S(=O)(=O)c3ccc(C(C)C)cc3)cc2C1
[C] CCCN(CCC)[C@@H]1Cc2ccc(NS(=O)(=O)c3ccc(C(C)C)cc3)cc2C1.Cl
[D] CCCN[C@@H]1Cc2ccc(NS(=O)(=O)c3ccc(C(C)C)cc3)cc2C1
Qu. Order the items by recorded Ki(D2)*/Ki(D3)* selectivity ratio; the first position goes to the largest value. Response field: labels, in requested order.
Ans. C, A, D, B
(C: 195, A: 134, D: 64, B: 22)

====

pKi: −log10 of the molar value.
human dopamine D3 receptors (Homo sapiens) measurements of pKi, listed per entry.
ASSAY_ENDPOINT: pKi

* CCCN[C@H]1Cc2ccc(NS(=O)(=O)c3ccc(C(C)C)cc3)cc2C1.Cl [Example 2, hydrochloride] | 8.17

[a] CCCN(CCC)[C@@H]1Cc2ccc(NS(=O)(=O)c3ccc(C(C)C)cc3)cc2C1.Cl [Example 7, hydrochloride]
[b] CCCN1CCC[C@@H]2c3cc(NS(=O)(=O)c4ccc(C(C)C)cc4)ccc3C[C@H]21 [4 (RR)-isomer]
[c] CCCN1CCC[C@H]2c3cc(NS(=O)(=O)c4ccc(C(C)C)cc4)ccc3C[C@@H]21 [4 (SS)-isomer]
[d] CCCN[C@@H]1Cc2ccc(NS(=O)(=O)c3ccc(C(C)C)cc3)cc2C1
Qu. Order the items by recorded pKi; the first position goes to the largest value. Response field: labels, in requested order.
Ans. a, c, d, b

====

Biological target: human dopamine D2L receptors (long isoform) (Homo sapiens, UniProt P14416)
Sequence (P14416 whole entry, canonical isoform): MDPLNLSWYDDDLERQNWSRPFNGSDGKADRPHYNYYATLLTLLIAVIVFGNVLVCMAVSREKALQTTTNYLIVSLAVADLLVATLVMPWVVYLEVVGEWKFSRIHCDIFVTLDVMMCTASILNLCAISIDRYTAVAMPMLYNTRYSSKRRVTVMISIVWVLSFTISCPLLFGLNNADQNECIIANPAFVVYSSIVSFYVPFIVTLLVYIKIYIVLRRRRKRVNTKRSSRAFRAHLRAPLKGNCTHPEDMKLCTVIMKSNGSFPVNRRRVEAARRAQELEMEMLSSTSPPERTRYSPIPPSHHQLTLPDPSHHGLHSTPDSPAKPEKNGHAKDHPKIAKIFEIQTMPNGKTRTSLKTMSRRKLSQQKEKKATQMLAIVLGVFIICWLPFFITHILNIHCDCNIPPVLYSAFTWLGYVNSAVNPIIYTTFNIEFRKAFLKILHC
Assay: Dopamine D2L receptor binding, displacement of [125I] iodospiperone
Details: membranes of HEK-293 cells stably expressing human D2L; 0.01 nM [125I] iodospiperone; 25° C., 60 minutes; read-out: Ki(D2)* receptor binding constant
ASSAY_ENDPOINT: Ki (nM)

- CCCN[C@H]1Cc2ccc(NS(=O)(=O)c3ccc(C(C)C)cc3)cc2C1.Cl [Example 2, hydrochloride]: 132
- CCCN(CCC)[C@@H]1Cc2ccc(NS(=O)(=O)c3ccc(C(C)C)cc3)cc2C1.Cl [Example 7, hydrochloride]: 51

[1] CCCN[C@@H]1Cc2ccc(NS(=O)(=O)c3ccc(C(C)C)cc3)cc2C1
[2] CCCN[C@H]1Cc2ccc(N(C)S(=O)(=O)c3ccc(C(C)C)cc3)cc2C1
Qu. Dear colleague, could you let me know whether 1 or 2 has the lower recorded Ki? Thanks. # reply format: chosen label
Ans. 2
